Please go through the items and note down their zone of inhibition.
# Tested on: Candida albicans
# test-name: Antimicrobial activity against Candida albicans
# Assay type: functional
Numeric only. Scale: mm

zone of inhibition reported for this compound C=C(C(=O)CC)C(O)c1ccc(Cl)cc1 (stereo not given) : 12

zone of inhibition reported for this compound C=C(C(=O)OCC)C(O)c1ccccc1Cl (stereo not given) : 13

zone of inhibition reported for this compound C=C(C#N)C(O)c1ccccc1Cl (stereo not given) : 13

zone of inhibition reported for this compound C=C(C#N)C(O)c1ccc(Cl)cc1 (stereo not given) : 13

zone of inhibition reported for this compound C=C(C#N)C(O)c1ccc(Cl)cc1Cl (stereo not given) : 11

zone of inhibition reported for this compound C=C(C(=O)OCC)C(O)c1ccc(Cl)cc1 (stereo not given) : 12

zone of inhibition reported for this compound C=C(C#N)C(O)c1ccccc1[N+](=O)[O-] (stereo not given) : 13

zone of inhibition reported for this compound C=C(C(=O)OCC)C(O)c1ccc(F)cc1 (stereo not given) : 15

zone of inhibition reported for this compound C=C(C#N)C(O)c1cccc([N+](=O)[O-])c1 (stereo not given) : 10

zone of inhibition reported for this compound C=C(C(=O)OCC)C(O)c1ccc([N+](=O)[O-])cc1 (stereo not given) : 11

----------
# Tested on: Candida albicans
# test-name: Antimicrobial activity against Candida albicans
# Format: functional
Please go through the items and note down their zone of inhibition.
Numeric only. Scale: mm

zone of inhibition reported for this compound C=C(C(=O)OCC)C(O)c1cccc([N+](=O)[O-])c1 (configuration not stated) : 14

zone of inhibition reported for this compound C=C(C#N)C(O)c1ccc(F)cc1 (configuration not stated) : 13

zone of inhibition reported for this compound C=C(C(=O)OCC)C(O)c1ccccc1OC (configuration not stated) : 12

zone of inhibition reported for this compound C=C(C#N)C(O)c1ccc([N+](=O)[O-])cc1 (configuration not stated) : 12

zone of inhibition reported for this compound C=C(C(=O)OC)C(O)c1ccccc1[N+](=O)[O-] (configuration not stated) : 12

zone of inhibition reported for this compound C=C(C(=O)OCC)C(O)c1ccc(Cl)cc1Cl (configuration not stated) : 15

zone of inhibition reported for this compound C=C(C(=O)OC)C(O)c1ccc([N+](=O)[O-])cc1 (configuration not stated) : 13

Reference source: ChEMBL document CHEMBL2046434
